- Tested system: human serum albumin (human) (UniProt P02768)
- Sequence (P02768 25-609 limits assumed): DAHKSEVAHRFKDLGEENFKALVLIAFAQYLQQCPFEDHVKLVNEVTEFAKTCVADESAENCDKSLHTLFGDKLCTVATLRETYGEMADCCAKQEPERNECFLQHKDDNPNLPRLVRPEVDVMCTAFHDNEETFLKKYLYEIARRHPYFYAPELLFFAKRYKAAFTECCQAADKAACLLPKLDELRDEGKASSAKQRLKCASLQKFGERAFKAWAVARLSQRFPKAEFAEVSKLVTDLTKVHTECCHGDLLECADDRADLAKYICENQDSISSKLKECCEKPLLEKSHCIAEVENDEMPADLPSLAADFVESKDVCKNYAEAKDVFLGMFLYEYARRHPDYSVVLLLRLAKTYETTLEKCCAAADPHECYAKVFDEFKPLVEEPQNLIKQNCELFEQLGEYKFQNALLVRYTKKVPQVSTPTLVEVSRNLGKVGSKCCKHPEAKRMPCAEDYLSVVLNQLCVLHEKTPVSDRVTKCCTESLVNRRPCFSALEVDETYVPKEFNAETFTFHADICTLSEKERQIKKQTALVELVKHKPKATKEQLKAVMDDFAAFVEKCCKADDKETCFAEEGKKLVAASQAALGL
- Test protocol: screening ELISA
Measurement name: HSA

Observe how each entry below is paired with its result.
SEQ ID NO 253 (designed binder) MLPAPKNLVVSRVTEDSARLSWTAPDAAFDSFTIEYWETIGGGEAIVLTVPGSERSYDLTGLKPGTEYYVGIYGVKGGWWSRPLSAIFTT : 2450
SEQ ID NO 176 (designed binder) MLPAPKNLVVSRVTEDSARLSWTAPDAAFDSFPIAYAEPRPDGEAIVLTVPGSERSYDLTGLKPGTEYSVGIHGVKGGHDSSPLSAIFTT : 10400
SEQ ID NO 105 (designed binder) MLPAPKNLVVSRVTEDSARLSWTAPDAAFDSFGIAYYERSGAGEAIVLTVPGSERSYDLTGLKPGTEYMVYINGVKGGFVSSPLSAIFTT : 1400

I: SEQ ID NO 250 (designed binder) MLPAPKNLVVSRVTEDSARLSWTAPDAAFDSFFIGYLEPYPPGEAIVLTVPGSERSYDLTGLKPGTEYAVEIAGVKGGLLSSPLSAISTT
II: SEQ ID NO 298 (designed binder) MLPAPKNLVVSRVTEDSARLSWTAPDAAFDSFPIAYAEPRPDGEAIVLTVPGSERSYDLTGLKPGTEYSVLIHGVKGGLLSSPLSAISTT
Lookup: Just curious, which one has the larger HSA reading, I or II ? Provide the label of your selected option as the answer.
Found: II
(II: 34000, I: 18800)

Reference for the values: patent US20210145976A1
